# protein stability index annotations
Test system: Saccharomyces cerevisiae
procedure-details: protein stability index of tFT-peptide fusion (C-terminal peptide) (PSI (0-1 scale)); higher = more stable (slower turnover)
condition-label: genetic background: wild type; temperature: 30 C
Please give only the number in your answer, with no unit.

Consider the reported protein stability index for these sequences:
REENAHLETYKV [HRK1 C-terminal 12 aa] :: 0.694
LLIPRRILTLDL [PDL32 C-terminal 12 aa] :: 0.605
INDKYKSNRTDS [ATG2 C-terminal 12 aa] :: 0.716
VLTAGVNSVAIK [RPN11 C-terminal 12 aa] :: 0.63
PKIGILHNYLYL [YFT2 C-terminal 12 aa] :: 0.654

Below: the item to evaluate.
Incoming: Respond only with protein stability index recorded for RLGDVLRVCCPS [YFL065C C-terminal 12 aa]
Outgoing: 0.668
